biological target: CyclinA2/CDK2 (Homo sapiens); construct: purchased CRELUX Protein Services; assay: Fluorescence Polarization (FP) competitive binding assay, Cyclin A2/Cdk2; settings: 8 nM Cyclin A2/Cdk2, 2 nM FAM probe; average of 2-3 independent experiments; read-out: Cyclin A FP IC50;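 note: plates equilibrated two hours at room temperature before polarization reading, IC50 fitted from eight-concentration compound titration curves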
pIC50: −log10 of the molar value. *1 amine or outer side, *2 acyl side, *3 side chain or, on linkers, in order; H or OH if unused. Where a SMILES comes first, the peptide text is derived from it. Bridges are numbered along the chain shown (N, C = ends). [ ]: non-standard residue; d: D form. The star is where a group is joined. X124 = CC(C)C(=O)N1[C@@H]2CC[C@H]1C=C(c1ccc(F)cc1C[C@@H](C(=O)[*:2])N(C)[*:1])C2; X23 = CCN([C@@H](Cc1cc(Cl)ccc1-c1ccc(N2CCN(C)CC2)cc1)C(=O)[*:2])[*:1]; X82 = CN([C@@H](Cc1cc(Cl)ccc1-c1cnn(S(C)(=O)=O)c1)C(=O)[*:2])[*:1]; NMehhhLys(Me) = CN([C@@H](CCCCCCCN(C)[*:3])C(=O)[*:2])[*:1]; NMe(hhhLys) = CN([C@@H](CCCCCCCN[*:3])C(=O)[*:2])[*:1]; cBuCO(3,3-F2-1-CF3) = O=C(C1(C(F)(F)F)CC(F)(F)C1)*; Pro(trans-4-F) = O=C(O)[C@@H]1C[C@@H](F)CN1; Pivaloyl(3,3,3-F3) = CC(C)(C(=O)*)C(F)(F)F; Gly(cPr) = N[C@H](C(=O)O)C1CC1
pIC50 overview
experimental readout: pIC50

[[record]]
molecule = "CC(C)C[C@@H]1NC(=O)[C@@H](N(C)C(=O)[C@@H](NC(=O)[C@@H]2C[C@@H](F)CN2C(=O)C2(C(F)(F)F)CC(F)(F)C2)C2CC2)CCCCCCCNC(=O)[C@H](Cc2cc(F)ccc2C2=C[C@@H]3CC[C@H](C2)N3C(=O)C(C)C)N(C)C1=O [Example 315] ({cBuCO(3,3-F2-1-CF3)}-[Pro(trans-4-F)][Gly(cPr)][NMe(hhhLys)]L[X124]; lactam 3-C)"
experimental_readout = "pIC50"
readout_value = 7.52

[[record]]
molecule = "CCN1C(=O)[C@H](CC(C)C)NC(=O)[C@@H](N(C)C(=O)[C@@H](NC(=O)[C@@H]2C[C@@H](F)CN2C(=O)C2(C(F)(F)F)CC(F)(F)C2)C2CC2)CCCCCCCN(C)C(=O)[C@@H]1Cc1cc(Cl)ccc1-c1ccc(N2CCN(C)CC2)cc1 [Example 405] ({cBuCO(3,3-F2-1-CF3)}-[Pro(trans-4-F)][Gly(cPr)][NMehhhLys(Me)]L[X23]; lactam 3-C)"
experimental_readout = "pIC50"
readout_value = 7.30

[[record]]
molecule = "CC(C)C[C@@H]1NC(=O)[C@@H](N(C)C(=O)[C@@H](NC(=O)[C@@H]2C[C@@H](F)CN2C(=O)C(C)(C)C(F)(F)F)C2CC2)CCCCCCCN(C)C(=O)[C@H](Cc2cc(Cl)ccc2-c2cnn(S(C)(=O)=O)c2)N(C)C1=O [Example 301] ({Pivaloyl(3,3,3-F3)}-[Pro(trans-4-F)][Gly(cPr)][NMehhhLys(Me)]L[X82]; lactam 3-C)"
experimental_readout = "pIC50"
readout_value = 7.40


----------
test system: NCI-H1048 cells; assay: MTT proliferation assay, NCI-H1048; type: cell-based; conditions: 5 days compound exposure, 1:3 serial dilution starting at 10 μM;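 note: Dose-response in 96-well plates over 8 or 10 concentration points, with exposure spanning 3-4 cell doublings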
*1 amine or outer side, *2 acyl side, *3 side chain or, on linkers, in order; H or OH if unused. Where a SMILES comes first, the peptide text is derived from it. Bridges are numbered along the chain shown (N, C = ends). [ ]: non-standard residue; d: D form. The star is where a group is joined. X136 = CN1CCOc2cc(-c3ccc(Cl)cc3C[C@@H](C(=O)[*:2])N(C)[*:1])ccc21; X89 = CN([C@@H](Cc1cc(Cl)ccc1-c1cnn(CC#N)c1)C(=O)[*:2])[*:1]; NMehhhLys(Me) = CN([C@@H](CCCCCCCN(C)[*:3])C(=O)[*:2])[*:1]; X44 = Cc1nnc(-c2ccc(Cl)cc2C[C@@H](C(=O)[*:2])N(C)[*:1])o1; X204 = CN([C@@H](Cc1cc(F)ccc1-c1ccnnc1)C(=O)[*:2])[*:1]; NMe(hhhLys) = CN([C@@H](CCCCCCCN[*:3])C(=O)[*:2])[*:1]; Cyclobutanecarbonyl(1-CF3) = O=C(C1(C(F)(F)F)CCC1)*; cBuCO(3,3-F2-1-CF3) = O=C(C1(C(F)(F)F)CC(F)(F)C1)*; Pro(trans-4-F) = O=C(O)[C@@H]1C[C@@H](F)CN1; Gly(cPr) = N[C@H](C(=O)O)C1CC1
experimental readout: GI50 (nM)

[[record]]
compound = "CC(C)C[C@@H]1NC(=O)[C@@H](N(C)C(=O)[C@@H](NC(=O)[C@@H]2C[C@@H](F)CN2C(=O)C2(C(F)(F)F)CC(F)(F)C2)C2CC2)CCCCCCCN(C)C(=O)[C@H](Cc2cc(Cl)ccc2-c2ccc3c(c2)OCCN3C)N(C)C1=O [Example 342] ({cBuCO(3,3-F2-1-CF3)}-[Pro(trans-4-F)][Gly(cPr)][NMehhhLys(Me)]L[X136]; lactam 3-C)"
readout_value = 10

[[record]]
compound = "CC[C@H](NC(=O)[C@@H]1C[C@@H](F)CN1C(=O)C1(C(F)(F)F)CC1)C(=O)N[C@H]1CC=CCCCCNC(=O)[C@H](Cc2cc(Cl)ccc2Cl)N(C)C(=O)[C@H](CC(C)C)NC1=O"
readout_value = 380

[[record]]
compound = "CC(C)C[C@@H]1NC(=O)[C@@H](N(C)C(=O)[C@@H](NC(=O)[C@@H]2C[C@@H](F)CN2C(=O)C2(C(F)(F)F)CCC2)C2CC2)CC=CCCCCN(C)C(=O)[C@H](Cc2cc(F)ccc2-c2cncnc2)N(C)C1=O"
readout_value = 100

[[record]]
compound = "CC[C@H](NC(=O)[C@@H]1C[C@@H](F)CN1C(=O)C1(C(F)(F)F)CC1)C(=O)N[C@H]1CC=CCCCCN(C)C(=O)[C@H](Cc2cc(Cl)ccc2Cl)N(C)C(=O)[C@H](CC(C)C)NC1=O"
readout_value = 70

[[record]]
compound = "Cc1nnc(-c2ccc(Cl)cc2C[C@H]2C(=O)N(C)CCCCCCC[C@H](N(C)C(=O)[C@@H](NC(=O)[C@@H]3C[C@@H](F)CN3C(=O)C3(C(F)(F)F)CCC3)C3CC3)C(=O)N[C@@H](CC(C)C)C(=O)N2C)o1 [Example 163] ({Cyclobutanecarbonyl(1-CF3)}-[Pro(trans-4-F)][Gly(cPr)][NMehhhLys(Me)]L[X44]; lactam 3-C)"
readout_value = 10

[[record]]
compound = "CC(C)C[C@@H]1NC(=O)[C@@H](N(C)C(=O)[C@@H](NC(=O)[C@@H]2C[C@@H](F)CN2C(=O)C2(C(F)(F)F)CC(F)(F)C2)C2CC2)CCCCCCCNC(=O)[C@H](Cc2cc(F)ccc2-c2ccnnc2)N(C)C1=O [Example 290] ({cBuCO(3,3-F2-1-CF3)}-[Pro(trans-4-F)][Gly(cPr)][NMe(hhhLys)]L[X204]; lactam 3-C)"
readout_value = 80

[[record]]
compound = "CC(C)C[C@@H]1NC(=O)[C@@H](N(C)C(=O)[C@@H](NC(=O)[C@@H]2C[C@@H](F)CN2C(=O)C2(C(F)(F)F)CC(F)(F)C2)C2CC2)C/C=C\\CCCCN(C)C(=O)[C@H](Cc2cc(Cl)ccc2-c2cnn(C3CC3)c2)N(C)C1=O"
readout_value = 10

[[record]]
compound = "CC(C)C[C@@H]1NC(=O)[C@@H](N(C)C(=O)[C@@H](NC(=O)[C@@H]2C[C@@H](F)CN2C(=O)C2(C(F)(F)F)CC(F)(F)C2)C2CC2)CCCCCCCN(C)C(=O)[C@H](Cc2cc(Cl)ccc2-c2cnn(CC#N)c2)N(C)C1=O [Example 216] ({cBuCO(3,3-F2-1-CF3)}-[Pro(trans-4-F)][Gly(cPr)][NMehhhLys(Me)]L[X89]; lactam 3-C)"
readout_value = 10


----------
GI50 overview
tested on: OVCAR3 cells; experiment: MTT proliferation assay, OVCAR3; type: cell-based; settings: 5 days compound exposure, 1:3 serial dilution starting at 10 μM;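 note: compound given as an 8- or 10-point series, one day after plating, with exposure covering roughly 3-4 cell doublings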
*1 amine or outer side, *2 acyl side, *3 side chain or, on linkers, in order; H or OH if unused. Where a SMILES comes first, the peptide text is derived from it. Bridges are numbered along the chain shown (N, C = ends). [ ]: non-standard residue; d: D form. The star is where a group is joined. X63 = CC(C)N1CCN(c2ccc(-c3ccc(Cl)cc3C[C@@H](C(=O)[*:2])N(C)[*:1])cc2F)CC1; X137 = CN([C@@H](Cc1cc(F)ccc1-c1cnn(S(C)(=O)=O)c1)C(=O)[*:2])[*:1]; NMehhhLys(Me) = CN([C@@H](CCCCCCCN(C)[*:3])C(=O)[*:2])[*:1]; X194 = CN([C@@H](Cc1cc(Cl)ccc1-c1ccnnc1)C(=O)[*:2])[*:1]; NMe(hhhLys) = CN([C@@H](CCCCCCCN[*:3])C(=O)[*:2])[*:1]; Oxane2carbonyl(2R-CF3) = O=C([C@@]1(C(F)(F)F)CCCCO1)*; X33 = CN([C@@H](Cc1cc(Cl)cc2c1OCCO2)C(=O)[*:2])[*:1]; cBuCO(3,3-F2-1-CF3) = O=C(C1(C(F)(F)F)CC(F)(F)C1)*; Pro(trans-4-F) = O=C(O)[C@@H]1C[C@@H](F)CN1; Gly(cPr) = N[C@H](C(=O)O)C1CC1
experimental readout: GI50 (nM)

[[record]]
molecule = "CC(C)C[C@@H]1NC(=O)[C@@H](N(C)C(=O)[C@@H](NC(=O)[C@@H]2C[C@@H](F)CN2C(=O)C2(C(F)(F)F)CC(F)(F)C2)C2CC2)CC=CCCCCN(C)C(=O)[C@H](Cc2cc(Cl)ccc2Oc2ncccn2)N(C)C1=O"
readout_value = 140

[[record]]
molecule = "CC(C)C[C@@H]1NC(=O)[C@@H](N(C)C(=O)[C@@H](NC(=O)[C@@H]2C[C@@H](F)CN2C(=O)C2(C(F)(F)F)CC(F)(F)C2)C2CC2)CCCCCCCNC(=O)[C@H](Cc2cc(Cl)cc3c2OCCO3)N(C)C1=O [Example 330] ({cBuCO(3,3-F2-1-CF3)}-[Pro(trans-4-F)][Gly(cPr)][NMe(hhhLys)]L[X33]; lactam 3-C)"
readout_value = 10

[[record]]
molecule = "CC(C)C[C@@H]1NC(=O)[C@@H](N(C)C(=O)[C@@H](NC(=O)[C@@H]2C[C@@H](F)CN2C(=O)C2(C(F)(F)F)CC(F)(F)C2)C2CC2)CC=CCCCCNC(=O)[C@H](Cc2cc(Cl)ccc2-c2cnn(C3CC3)c2)N(C)C1=O"
readout_value = 80

[[record]]
molecule = "CC(C)C[C@@H]1NC(=O)[C@@H](N(C)C(=O)[C@@H](NC(=O)[C@@H]2C[C@@H](F)CN2C(=O)C2(C(F)(F)F)CC(F)(F)C2)C2CC2)CCCCCCCN(C)C(=O)[C@H](Cc2cc(Cl)ccc2-c2ccc(N3CCN(C(C)C)CC3)c(F)c2)N(C)C1=O [Example 413] ({cBuCO(3,3-F2-1-CF3)}-[Pro(trans-4-F)][Gly(cPr)][NMehhhLys(Me)]L[X63]; lactam 3-C)"
readout_value = 10

[[record]]
molecule = "CC(C)C[C@@H]1NC(=O)[C@@H](N(C)C(=O)[C@@H](NC(=O)[C@@H]2C[C@@H](F)CN2C(=O)[C@@]2(C(F)(F)F)CCCCO2)C2CC2)CCCCCCCN(C)C(=O)[C@H](Cc2cc(F)ccc2-c2cnn(S(C)(=O)=O)c2)N(C)C1=O [Example 303] ({Oxane2carbonyl(2R-CF3)}-[Pro(trans-4-F)][Gly(cPr)][NMehhhLys(Me)]L[X137]; lactam 3-C)"
readout_value = 10

[[record]]
molecule = "CC(C)C[C@@H]1NC(=O)[C@@H](N(C)C(=O)[C@@H](NC(=O)[C@@H]2C[C@@H](F)CN2C(=O)C2(C(F)(F)F)CC(F)(F)C2)C2CC2)CCCCCCCN(C)C(=O)[C@H](Cc2cc(Cl)ccc2-c2ccnnc2)N(C)C1=O [Example 292] ({cBuCO(3,3-F2-1-CF3)}-[Pro(trans-4-F)][Gly(cPr)][NMehhhLys(Me)]L[X194]; lactam 3-C)"
readout_value = 110

